PROTOCOL DETAILS: General toxicity LD50 (i.p.)
RUN PARAMETERS: nude, mouse, in vivo, ip, read-out: LD 50 (general toxicity)
METRIC NAME: LD50 at 5 days

INSERT INTO results (item_smiles, metric_name, obs_value) VALUES
  ('COc1cccc(C2=C(c3cccc(OC)c3)c3cc4cc(OC)ccc4n3C2=O)c1', 'LD50 at 5 days', '> 100 mg/kg');

* * *

System: MCF-7 (HTB22) cells
PROTOCOL DETAILS: XTT cytotoxicity (proliferation) test, MCF-7
Format: cell-based
RUN PARAMETERS: Homo sapiens, MCF7, concentration 3.16 μg/mL, 45 h incubation, read-out: percentage inhibition MCF-7
METRIC NAME: inhibition at 3.16 µg/mL (%)

INSERT INTO measurements (item_smiles, metric_name, obs_value) VALUES
  ('COc1cccc(C2=C(c3cccc(OC)c3)c3cc4cc(OC)ccc4n3C2=O)c1', 'inhibition at 3.16 µg/mL', 18.2),
  ('COc1cccc(C2=C(c3ccccc3)C(=O)n3c2cc2cc(OC)ccc23)c1', 'inhibition at 3.16 µg/mL', 8.1),
  ('COc1ccc(C2=C(c3ccc(F)cc3)C(=O)n3c2cc2cc(OC)ccc23)cc1', 'inhibition at 3.16 µg/mL', 0),
  ('COc1ccc2c(c1)cc1c(-c3ccc(Cl)cc3)noc(=O)n12', 'inhibition at 3.16 µg/mL', 1.9),
  ('COc1ccc2c(c1)cc1c(-c3ccccc3)noc(=O)n12', 'inhibition at 3.16 µg/mL', 4.1);
